ASSAY DETAILS: Plasma and tumor pharmacokinetics in H460 tumor-bearing nude mice
Format: in vivo, mouse
CONDITION PARAMETERS: female, HRLN nude, mouse, in vivo, iv, Tmax, analyte docetaxel, plasma
OBSERVABLE: Tmax (min)
Numbers only, in min.

Query: Give the measured Tmax of CC(=O)O[C@@]12CO[C@@H]1C[C@H](O)[C@@]1(C)C(=O)[C@H](O)C3=C(C)[C@@H](OC(=O)[C@H](O)[C@@H](NC(=O)OC(C)(C)C)c4ccccc4)C[C@@](O)([C@@H](OC(=O)c4ccccc4)[C@H]21)C3(C)C [Docetaxel, reference compound] .
Response: 30

* * *

ASSAY DETAILS: Pharmacokinetics after IV infusion in Sprague-Dawley rats
Format: in vivo, rat
CONDITION PARAMETERS: Sprague-Dawley, rat, plasma; male rats, single IV dose 5 mg/kg; read-out: Cmax, analyte docetaxel
OBSERVABLE: Cmax (ng/mL)
One number for each entry, in ng/mL.

Query: Give the measured Cmax of CC(=O)O[C@@]12CO[C@@H]1C[C@H](O)[C@@]1(C)C(=O)[C@H](O)C3=C(C)[C@@H](OC(=O)[C@H](O)[C@@H](NC(=O)OC(C)(C)C)c4ccccc4)C[C@@](O)([C@@H](OC(=O)c4ccccc4)[C@H]21)C3(C)C [Docetaxel, reference compound] .
Response: 682

* * *

ASSAY DETAILS: Pharmacokinetics after IV infusion in Beagle dogs
Format: in vivo, dog
CONDITION PARAMETERS: Beagle, dog, plasma; male dogs, single IV dose 0.75 mg/kg; read-out: AUClast, analyte docetaxel
OBSERVABLE: AUC(0-t) (ng·h/mL)
Give bare numbers, in ng·h/mL.

Query: Give the measured AUC(0-t) of CC(=O)O[C@@]12CO[C@@H]1C[C@H](O)[C@@]1(C)C(=O)[C@H](O)C3=C(C)[C@@H](OC(=O)[C@H](O)[C@@H](NC(=O)OC(C)(C)C)c4ccccc4)C[C@@](O)([C@@H](OC(=O)c4ccccc4)[C@H]21)C3(C)C [Docetaxel, reference compound] .
Response: 479

* * *

ASSAY DETAILS: Plasma and tumor pharmacokinetics in H460 tumor-bearing nude mice
Assay type: in vivo, mouse
CONDITION PARAMETERS: female, HRLN nude, mouse, in vivo, iv, 25 mg/kg, AUClast, analyte docetaxel, tumor
OBSERVABLE: AUC(0-t) (µg·h/mL)
Give bare numbers, in µg·h/mL.

Query: Give the measured AUC(0-t) of CC(=O)O[C@@]12CO[C@@H]1C[C@H](O)[C@@]1(C)C(=O)[C@H](O)C3=C(C)[C@@H](OC(=O)[C@H](O)[C@@H](NC(=O)OC(C)(C)C)c4ccccc4)C[C@@](O)([C@@H](OC(=O)c4ccccc4)[C@H]21)C3(C)C [Docetaxel, reference compound] .
Response: 139

* * *

ASSAY DETAILS: Plasma and tumor pharmacokinetics in H460 tumor-bearing nude mice
Format: in vivo, mouse
CONDITION PARAMETERS: female, HRLN nude, mouse, in vivo, iv, 25 mg/kg, Cmax, analyte docetaxel, plasma
OBSERVABLE: Cmax (ng/mL)
One number for each entry, in ng/mL.

Query: Give the measured Cmax of CC(=O)O[C@@]12CO[C@@H]1C[C@H](O)[C@@]1(C)C(=O)[C@H](O)C3=C(C)[C@@H](OC(=O)[C@H](O)[C@@H](NC(=O)OC(C)(C)C)c4ccccc4)C[C@@](O)([C@@H](OC(=O)c4ccccc4)[C@H]21)C3(C)C [Docetaxel, reference compound] .
Response: 2570
